Source of measurements: ChEMBL document CHEMBL1130174

target: Endothelin-1 receptor (Rattus norvegicus, UniProt P26684); assay: Ability to displace endothelin ([125I]ET1) from endothelin A receptor derived from MMQ cells of rodent.
pIC50: −log10 of the molar value.
Label Condition met for high-side pIC50 (at or above 9) and Condition not met for low-side pIC50 (below it).

Here are 3 compounds together with their reported answers.
{"COMPOUND SMILES": "CCCN(CCN1C[C@H](c2ccc3c(c2)OCO3)[C@@H](C(=O)O)[C@@H]1c1ccc(OC)c(F)c1)S(=O)(=O)CCC(C)C", "TEST TARGET": "Endothelin-1 receptor (Rattus norvegicus, UniProt P26684)", "CLASS": "Condition met"}
{"COMPOUND SMILES": "CCCCS(=O)(=O)N(CCC)CCN1C[C@H](c2ccc3c(c2)OCO3)[C@@H](C(=O)O)[C@@H]1c1ccc(OC)cc1", "TEST TARGET": "Endothelin-1 receptor (Rattus norvegicus, UniProt P26684)", "CLASS": "Condition not met"}
{"COMPOUND SMILES": "CCCN(CCN1C[C@H](c2ccc3c(c2)OCO3)[C@@H](C(=O)O)[C@@H]1c1ccc(OC)cc1)S(=O)(=O)c1ccc(OC)cc1", "TEST TARGET": "Endothelin-1 receptor (Rattus norvegicus, UniProt P26684)", "CLASS": "Condition met"}

Proceed to the following item.
Lookup: Is pIC50 at least 9? Consider "CCCN(CCN1C[C@H](c2ccc3c(c2)OCO3)[C@@H](C(=O)O)[C@@H]1c1ccc(OC)cc1)S(=O)(=O)c1ccc(Cl)cc1"
Found: Condition not met

----------
Biological target: Endothelin-1 receptor (Rattus norvegicus, UniProt P26684)
Sequence (P26684 whole entry): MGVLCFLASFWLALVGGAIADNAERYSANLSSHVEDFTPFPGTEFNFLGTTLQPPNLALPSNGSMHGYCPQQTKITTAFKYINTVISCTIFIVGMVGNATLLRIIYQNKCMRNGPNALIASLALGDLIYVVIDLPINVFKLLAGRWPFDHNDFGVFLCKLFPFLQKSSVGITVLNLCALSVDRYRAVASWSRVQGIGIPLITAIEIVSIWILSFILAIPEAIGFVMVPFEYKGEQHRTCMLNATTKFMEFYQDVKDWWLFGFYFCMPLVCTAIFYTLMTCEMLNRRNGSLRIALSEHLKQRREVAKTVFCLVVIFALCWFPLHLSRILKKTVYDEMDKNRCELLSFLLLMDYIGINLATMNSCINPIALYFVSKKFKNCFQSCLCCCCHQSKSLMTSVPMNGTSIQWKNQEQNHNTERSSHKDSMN
Experiment: Ability to displace endothelin ([125I]ET1) from endothelin A receptor derived from MMQ cells of rodent.
ENDPOINT LABEL: IC50 (pM)
One number for each entry, in pM.

Check out these entries, answers already filled in.
{"COMPOUND SMILES": "CCCN(CCN1C[C@H](c2ccc3c(c2)OCO3)[C@@H](C(=O)O)[C@@H]1c1ccc(OC)cc1)S(=O)(=O)CC", "IC50 (pM)": 1200}
{"COMPOUND SMILES": "CCCN(CCN1C[C@H](c2ccc3c(c2)OCO3)[C@@H](C(=O)O)[C@@H]1c1ccc(OC)cc1)S(=O)(=O)CC(C)C", "IC50 (pM)": 780}
{"COMPOUND SMILES": "CCCCCS(=O)(=O)N(CCC)CCN1C[C@H](c2ccc3c(c2)OCO3)[C@@H](C(=O)O)[C@@H]1c1ccc(OCOC)cc1", "IC50 (pM)": 620}

Attention now turns to another entry.
Lookup: Kindly indicate its recorded IC50. Item: "CCCN(CCN1C[C@H](c2ccc3c(c2)OCO3)[C@@H](C(=O)O)[C@@H]1c1ccc(OC)cc1)S(=O)(=O)CCC"
Found: 1600
